// provenance: a melting point compilation (Tetko et al.; mined from patent text by program, amines drawn as free bases though some values may be those of a salt)

Quantity Kind: melting point

Guide cases for melting point, answers given:
Lab book: melting point of `O=[N+]([O-])C(=Cc1ccco1)C1=NCCN1Cc1ccc(Cl)nc1` noted as 157 to 162 °C

The value of melting point measured for the molecule `Cc1nc(-c2cccc(-n3cnc4cc(I)ccc43)c2)cs1` turned out to be 163 to 164 °C

What the record says about `CCn1c2ccccc2c2cc(C=Cc3ccc(N)cc3)ccc21` : melting point is 131 to 132 °C

Recorded melting point (molecule `CCC(=O)NCCc1cc(-c2cccc(C(=O)OC)c2)cc2ccc(OC)cc12` ): 113 to 115 °C

Turning now to a further record.
For reference, reported melting point for `CCc1nc(C)n(COCc2ccccc2)c1Sc1ccccc1` stands at 156 to 159 °C

----------
melting point reference

Example cases with answers are listed next.
Form field melting point, entry COc1ccc(C(=O)NCC(O)CC(=O)O)cc1OCc1ccccc1 (centres undefined) : 158 to 160 °C

Data point: `COP(=O)(CN[C@@H](Cc1ccc(-c2ccccc2)cc1)C(=O)NCCC(=O)O)OC` ; melting point = 122 to 123 °C

The molecule CNC(=O)c1ccc(N2CC(CNC(C)=S)OC2=O)cc1F (centres undefined) showed melting point equal to 176 to 177 °C

# melting point (molecule: `CC(C)Nc1nc(-n2cc(C(=O)O)c(=O)c3cc(F)c(N4CC(N)C4)c(Cl)c32)c(F)cc1F` ) is 220 to 223 °C

The recorded melting point for CC(=O)c1ccc2c(c1)C(C(=O)Nc1cccc(C(=O)Nc3ccccc3)c1)C(=O)N2CC(F)(F)F (centres undefined) is 197 to 203 °C

More entries:
Entry `O=C(O)c1cnn2c(-c3cccc(C(F)(F)F)c3)ccnc12` — recorded melting point = 248 to 250 °C

----------
# melting point listing for each entry below

The recorded melting point for entry `CN(C)C(=O)Sc1ccccc1C(=O)c1cccc(C#N)c1` equals 86 °C

Noted for CN1C(=O)C(NC(=O)c2ccccc2)C(C)(C)SC1=S (stereo not given) : its melting point reads 184 to 185 °C

# melting point of O=C1NN=C(c2ccc(NC(=O)C3CC3(Cl)Cl)cc2)C2CC12 (stereo not given) = 264 to 265 °C

Form: compound = `CC(C)(C)OC(=O)N[C@@H](Cc1ccnc(C#N)c1)C(=O)OCc1ccccc1` ; melting point = 74 to 76 °C

// field: melting point; key: COc1ccc(Cn2nnnc2C(O)c2ccccc2Cl)cc1 (racemic) ; value = 128 to 130 °C

----------
Documented melting point across a set of compounds

Examples from the recorded data:
melting point reading for `CN1CCc2c(-c3ccc(Cl)cc3)ccc([N+](=O)[O-])c2C1` : 162 to 163 °C

melting point measured on `Cc1cc(C)cc(-c2cn(C)cc(-c3ccccc3)c2=O)c1` = 148 to 150 °C

Per the records, this compound ( `CC(C)(NC(=O)C1=C(C(=O)Nc2cc(OC3CCCC3)c(Cl)cc2F)CCCC1)c1cccc(F)c1` ) has melting point equal to 231 to 234 °C

Lab book: melting point of `O=c1ccc(-c2ccc3c(c2)CCN(C2CCC2)CC3)n[nH]1` noted as 250 to 251 °C

Per the record, `Cc1nc2c(N)cccn2c1C` has melting point of 148 to 150 °C

Further cases:
Sample CCOC(=O)C(Cl)=Cc1cc(NC(=O)CC(C)CC(=O)O)ccc1Cl (stereo not drawn) ; melting point observed: 82 to 84 °C

Record summary for `COCCn1nc2c(N)nc3ncccc3c2c1CC(C)(C)O` : reported melting point = 233 to 236 °C

Just so you know, measured melting point for CC1NC(=O)NN=C1c1ccc2sc(=O)n(CC(=O)N3CCN(CCO)CC3)c2c1 (stereo not drawn) came out at 248 to 250 °C
